Overview of recorded koff for various binders
Study target: T1, factor H binding protein (fHbp) variant 2.16 (Neisseria meningitidis 961-5945, UniProt Q6VS19, strain)
T1 construct: also called fHbp v2.16; fHbp v2; source: E. coli BL21(DE3), purified (Ni-NTA; SEC when necessary)
Assay procedure: SPR
Settings: both partners purified
Quantity kind: koff (s⁻¹)

>>> reading("human anti-fHbp mAb 4B10 (antibody, V domains shown, source: Expi293, transient transfection, purified (protein G Sepharose)) VH: EVQLVESGGGLVKPGGSLRLSCAASGFAFSTYSLHWVRQAPGKGLEWVSAITSSGSFLYYADSLKGRFTVSRDNAKNSLFLQMNSLRAGDTAVYYCARALQVEDGFPMFSGLDVWGQGTTVTVSS VL: QTVVTQPPSVSEAPRQRVAISCSGSSSNIGDNSVSWYQQLPGKAPKLLIYDDDLLPSGVSDRFSASKSGTSASLAISGLQSEDEAEYYCAAWDDSLKGVVFGGGTKLTVL")
0.000706
>>> reading("human anti-fHbp mAb 1D1 (antibody, V domains shown, source: Expi293, transient transfection, purified (protein G Sepharose)) VH: QVQLVGSGGGLVKPGGSLRLSCAASGFTFSSYTMNWVRQAPGKGLEWVSSISSSSGYIYYADSLKGRFTISRDDAKNSLFLQMNSLRAEDTAVYFCARDKVLPAPPGFYGLDVWGPGTTVTVSS VL: QSVVTQPPSVSAAPGQKVTISCSGSSSNIEDNFVSWYQQLPGTAPKLLIYDNNQRPSGIPDRFSGSKSGTSATLGITGLQTGDEADYYCATWDNSLSARVFGGGTKLTVL")
0.00264
